- Test system: Amaranthus retoflexus (AMARE)
- assaySummary: Pre-emergence herbicide glasshouse test
- Assay type: in vivo
- testContext: 250 g/ha, evaluated after 13 days, five-point scale
Could you please report measured percentage damage caused to the plant, AMARE for the items listed next?

Items follow; give percentage damage caused to the plant, AMARE for each.
1. CC(=NOCC1CC1)c1nc(C(F)(F)F)nc2cccc(Oc3ncc(Cl)cn3)c12 [Compound 1.003]
2. CC(Br)c1nc(C(F)(F)F)nc2cccc(Oc3ncc(Cl)cn3)c12 (stereo not drawn)
3. CON=CCc1nc(C(F)(F)F)nc2cccc(Oc3ncc(Cl)cn3)c12

Resp:
1 (1=0-20%)
2 (2=21-40%)
1 (1=0-20%)
